# Tested on: U251 CNS
# test method notes: NCI-60 one-dose screen, 48 h (100 = growth as untreated, 0 = no growth, -100 = all killed)
# test parameters: 10 µM unless noted
Compounds without any hit were thinned out: in the full panel of roughly 83,000, 20% have a hit.
readout name: growth (%)

compound: O=C(c1ccccc1)C1OC1C(=O)c1ccccc1 (configuration not stated)
readout name: growth
measured number: 28.1

compound: Clc1ccccc1CNc1c2ccccc2nc2ccccc12
readout name: growth
measured number: 23.2

compound: COc1ccc2nc3ccccc3c(NCc3ccc(Cl)cc3)c2c1
readout name: growth
measured number: 2.55

compound: COc1cccc(N2CCN(c3ncnc4cc[nH]c34)CC2)c1
readout name: growth
measured number: 66.9

compound: CN1CCC2(CC1)N=C(SCC(=O)Nc1cnc3ccccc3c1)C(c1ccc(Br)cc1)=N2
readout name: growth
measured number: -24.7

compound: CCOC(=O)C1C(=O)C=C(c2ccccc2)CC1c1sc(N(C)Cc2ccccc2)nc1Cl (configuration not stated)
readout name: growth
measured number: 92.7

compound: CN1CCCN(CCNc2nccc(-c3c(-c4cccc(O)c4)nc4sccn34)n2)S1(=O)=O
readout name: growth
measured number: 56.6

compound: COc1ccc(-c2cc(C(=O)Nc3ccc(C)cc3)nc3[nH]c(=O)sc23)cc1
readout name: growth
measured number: 56.2

compound: O=c1nc(-c2ccccc2)c2cc(-c3ccc(N4CCOCC4)cc3)ccc2[nH]1
readout name: growth
measured number: 69.9

compound: N/C(=N\OC(=O)c1ccccc1)C(C(=O)NOC(=O)c1ccccc1)C1CCCCC1 (configuration not stated)
readout name: growth
measured number: -25

compound: CS(=O)(=O)c1ccc(Cl)c([N+](=O)[O-])c1
readout name: growth
measured number: 109

compound: ClC1(Cl)C2CCCCCCC21 (configuration not stated)
readout name: growth
measured number: 109

compound: N=C(N)c1ccc(NCCNc2ccc(C(=N)N)cc2)cc1
readout name: growth
measured number: 89.8

compound: COc1ccc2nc(C)cc(Sc3nc4ccccc4s3)c2c1
readout name: growth
measured number: 39.6

compound: Oc1ccc(-c2nnc3c4[nH]ccc4ncn23)cc1
readout name: growth
measured number: 102

compound: Cc1nc(N)nc2c1CCC(Nc1ccccc1)S2 (configuration not stated)
readout name: growth
measured number: 103

compound: NC(CCC(=O)NC(CS)C(=O)NCC(=O)O)C(=O)O (configuration not stated)
readout name: growth
measured number: 106

compound: O=C(Nc1cccc(-n2ccc3c(NC(=O)c4ccccc4)nccc32)c1)c1ccc(N2CCOCC2)c(C(F)(F)F)c1
readout name: growth
measured number: 15.5

compound: CCCCCN(CCCCC)C(=O)C(CCC(=O)O)NC(=O)c1ccc(Cl)c(Cl)c1 (configuration not stated)
readout name: growth
measured number: 101

compound: CSC1=N/C(=C\c2cccc(OCc3ccc(Cl)cc3)c2)C(=O)N1
readout name: growth
measured number: 84.5

compound: COc1ccc(N=C2CSc3nnc(-c4cc(F)c(Cl)cc4Cl)n3N2)cc1
readout name: growth
measured number: -52.2

compound: COc1ccccc1CNCCCN1C(=O)c2ccc3c4c(ccc(c24)C1=O)C(=O)N(CCCNCCCN)C3=O
readout name: growth
measured number: -72.5

----------
# Test system: MCF7 breast
# test method notes: NCI-60 one-dose screen, 48 h (100 = growth as untreated, 0 = no growth, -100 = all killed)
# test parameters: 10 µM unless noted
This is part of a sample that, as a whole, favours compounds with a hit. Of some 83,000 tested, about 20% had one in any assay.

input smiles: O=C(NNC(=O)c1cccc(Cl)c1)c1ccccc1
growth / %: 105
--
input smiles: C/C(=N\Nc1ccc([N+](=O)[O-])cn1)c1ccc(N)cc1
growth / %: 85
--
input smiles: Cc1[nH]c2ccccc2c1C1=CC(=O)C=CC1=O
growth / %: 55.3
--
input smiles: CCOc1cc(/C=N\NC(=O)C[N+](C)(C)C)ccc1O
growth / %: 105
--
input smiles: COc1ccc(-c2cnc(-c3ccncc3-c3cccc(OC)c3)o2)cc1
growth / %: 16.4
--
input smiles: O=C1C(Cl)=C(Nc2cccc3ccccc23)C(=O)c2ccccc21
growth / %: 44
